Reference for the values: BindingDB's records for doi:10.1016/j.bmcl.2008.04.031

test: Degradation promoting activity of FLAG tagged cIAP1 expressed in human HT1080 cells after 3 hrs by Western blotting analysis
Task for the reader: assign each of the following compounds its reported IC50.
Write down the numeric answer in µM and omit the unit.

**Query** What measured IC50 goes with `CC(C)C[C@H](NC(=O)[C@@H](O)[C@H](N)Cc1ccccc1)C(=O)OCCNS(=O)(=O)c1cccc2c(N(C)C)cccc12` ?
**Result** 1.86

**Query** What measured IC50 goes with `COC(=O)[C@H](CC(C)C)NC(=O)[C@@H](O)[C@H](N)Cc1ccccc1` ?
**Result** 0.69
